As shown below, each of these binders has a reported kon value.
Target: T1, deglycosylated V domain of human CD33 (human, UniProt P20138 18-139, limits assumed, N-glycans removed by PNGase)
T1 construct: V domain deglycosylated by PNGase before testing; also called deglycosylated V CD33
Assay: SPR, Fab captured, 37C;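 further: biacore 8K surface plasmon resonance with Fabs held on an amine-coupled anti-Fab antibody surface, soluble monomeric CD33 domain injected as analyte, double-referenced 1:1 binding fit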
parameter-measured: kon (M⁻¹ s⁻¹)

binder="ADI-11826 Fab (Fab, V domains shown, Fab fragment; also called Ab26) VH: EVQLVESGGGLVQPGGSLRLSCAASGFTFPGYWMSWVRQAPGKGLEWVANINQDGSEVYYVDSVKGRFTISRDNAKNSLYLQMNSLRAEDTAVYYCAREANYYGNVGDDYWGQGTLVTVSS VL: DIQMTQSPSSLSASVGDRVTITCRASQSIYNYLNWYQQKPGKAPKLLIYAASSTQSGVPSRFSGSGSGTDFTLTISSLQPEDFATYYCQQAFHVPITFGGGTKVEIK" parameter_measured=kon measured_value=5.37e+06
binder="ADI-11807 Fab (Fab, V domains shown, Fab fragment; also called Ab5; I07) VH: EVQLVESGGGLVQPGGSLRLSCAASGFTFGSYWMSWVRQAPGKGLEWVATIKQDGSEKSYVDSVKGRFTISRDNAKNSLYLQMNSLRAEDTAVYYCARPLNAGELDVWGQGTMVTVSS VL: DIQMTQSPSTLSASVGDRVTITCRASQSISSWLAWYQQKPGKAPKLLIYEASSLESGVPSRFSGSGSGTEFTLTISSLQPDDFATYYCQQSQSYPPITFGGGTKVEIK" parameter_measured=kon measured_value=3.9e+06
